Where do these numbers come from? They come from patent US12729458B2.

- system.under.test: SHP2 (SHP2223-565) (Homo sapiens)
- Construct: made in house; host or cells: E. coli BL21 (DE3)
- Sequence (Q06124 223-565 limits assumed): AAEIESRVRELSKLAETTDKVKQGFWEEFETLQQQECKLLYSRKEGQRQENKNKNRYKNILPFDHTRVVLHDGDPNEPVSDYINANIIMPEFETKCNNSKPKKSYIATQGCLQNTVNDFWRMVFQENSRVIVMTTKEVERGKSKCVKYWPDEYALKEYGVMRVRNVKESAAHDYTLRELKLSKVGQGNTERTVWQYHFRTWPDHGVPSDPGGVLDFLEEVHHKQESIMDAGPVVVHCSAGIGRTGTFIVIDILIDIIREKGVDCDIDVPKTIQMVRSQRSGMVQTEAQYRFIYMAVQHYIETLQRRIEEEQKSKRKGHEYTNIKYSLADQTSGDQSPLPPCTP
- procedure.details: SHP2-catalyzed hydrolysis of 4-MUP in the presence of terpenoids
- Assay type: biochemical, H. sapiens
- measurement.parameters: SHP2223-565; mixed model, competitive constant; read-out: Fit par. Ki,c, mixed model
- Source text: Enzyme kinetics. To examine terpenoid-mediated inhibition, we measured PTP-catalyzed hydrolysis of p-nitrophenyl phosphate (pNPP) or 4-methylumbelliferyl phosphate (4-MUP, used when KM for pNPP was large) in the presence of various concentrations of terpenoids. […] We used a custom MATLAB script to process all raw kinetic data. […] When this step reduced kinetic dataset to fewer than ten points, we re-measured those datasets to collect at least ten. […]
test.readout: Ki (µM)
The answer is to be given in µM; state only the numeric part.

Known value: SHP2 (SHP2223-565) (Homo sapiens) Ki of the molecule "C=C(C)[C@@H]1CC[C@@H](C)[C@@H]2CCC(C)=C[C@@H]21" equals 236
